System: Caco-2 cells
Assay: Membrane permeability test using Caco-2 cells with preincubation
Format: in vitro ADME
Conditions: Caco-2 cells, preincubation 20 to 24 hours; apical FaSSIF/HBSS 1% DMSO pH 6.0, basal HBSS 4% BSA pH 7.4; basal sample at 180 minutes
Non-standard residues stand in square brackets, D forms with d. Residues, ends and D or L forms follow the SMILES beside them. *: point of attachment. NMeF = CN[C@@H](Cc1ccccc1)C(=O)O; NMeL = CN[C@@H](CC(C)C)C(=O)O; NMeV = CN[C@H](C(=O)O)C(C)C; d(β3hA) = C[C@@H](N)CC(=O)O; Abu = CC[C@H](N)C(=O)O; Sar = CNCC(=O)O; tBu = CC(C)(C)*
Quantity: Caco2 Papp (10^-6 cm/sec)

Task: What measured Caco2 Papp (10^-6 cm/sec) is associated with CC[C@@H]1NC(=O)[C@H](CC(C)C)N(C)C(=O)[C@H]([C@@H](C)CC)NC(=O)CN(C)C(=O)C[C@@H](C)NC(=O)[C@H](C(C)C)N(C)C(=O)[C@H](COC(C)(C)C)NC(=O)[C@H](CC(C)C)N(C)C(=O)[C@H](Cc2ccccc2)N(C)C(=O)[C@H](CC(C)C)NC(=O)CN(C)C(=O)[C@H]([C@@H](C)O)NC(=O)[C@H](CC(C)C)N(C)C1=O [pd129] (cyclo([Abu][NMeL]T[Sar]L[NMeF][NMeL]S(tBu)[NMeV][d(β3hA)][Sar]I[NMeL])) on Caco-2 cells?
Output: 0.71 10^-6 cm/sec
